# target-of-assay: T1, recombinant extracellular domain (ECD) of human TF, amino acid 1-219 of the mature chain, C-terminal His6-tag (human, UniProt P13726 33-251)
# T1 construct: expressed in a mammalian system; used for ELISA and Biacore; biotinylated by NHS-ester for the Fab ELISA; also called His6-TF-ECD1-219; HumanTF1-219
# assay-comment: TF-ECD binding ELISA, chemiluminescent
assay-readout: EC50 (ng/mL)
Number only, in ng/mL; omit the unit.

Summary for this binder, M59 (antibody, V domains shown, FR4 is its own entry; also called H22/L3) VH: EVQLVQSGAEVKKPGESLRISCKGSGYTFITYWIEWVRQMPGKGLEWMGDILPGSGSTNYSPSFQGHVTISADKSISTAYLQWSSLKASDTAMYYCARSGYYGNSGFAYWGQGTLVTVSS VL: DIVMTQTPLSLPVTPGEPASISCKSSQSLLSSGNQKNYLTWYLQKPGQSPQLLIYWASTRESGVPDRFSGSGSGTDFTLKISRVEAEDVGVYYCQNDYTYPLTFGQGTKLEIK : EC50 is 8.8

Summary for this binder, M58 (antibody, V domains shown, complete MAb; FR4 is its own entry; also called H22/L2) VH: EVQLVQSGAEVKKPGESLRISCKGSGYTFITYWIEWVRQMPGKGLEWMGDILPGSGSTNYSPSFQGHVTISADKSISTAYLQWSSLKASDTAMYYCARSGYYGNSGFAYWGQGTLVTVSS VL: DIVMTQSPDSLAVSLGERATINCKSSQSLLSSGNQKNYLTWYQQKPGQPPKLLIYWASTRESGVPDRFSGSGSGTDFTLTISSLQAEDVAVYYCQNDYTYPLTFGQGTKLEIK : EC50 is 9.03
